Exercise: state measured remaining activity at 500 µM for each of the molecules provided.
Biological target: IDE (Homo sapiens, UniProt P14735)
Construct: made in house; host or cells: bacteria
Sequence (P14735 whole entry): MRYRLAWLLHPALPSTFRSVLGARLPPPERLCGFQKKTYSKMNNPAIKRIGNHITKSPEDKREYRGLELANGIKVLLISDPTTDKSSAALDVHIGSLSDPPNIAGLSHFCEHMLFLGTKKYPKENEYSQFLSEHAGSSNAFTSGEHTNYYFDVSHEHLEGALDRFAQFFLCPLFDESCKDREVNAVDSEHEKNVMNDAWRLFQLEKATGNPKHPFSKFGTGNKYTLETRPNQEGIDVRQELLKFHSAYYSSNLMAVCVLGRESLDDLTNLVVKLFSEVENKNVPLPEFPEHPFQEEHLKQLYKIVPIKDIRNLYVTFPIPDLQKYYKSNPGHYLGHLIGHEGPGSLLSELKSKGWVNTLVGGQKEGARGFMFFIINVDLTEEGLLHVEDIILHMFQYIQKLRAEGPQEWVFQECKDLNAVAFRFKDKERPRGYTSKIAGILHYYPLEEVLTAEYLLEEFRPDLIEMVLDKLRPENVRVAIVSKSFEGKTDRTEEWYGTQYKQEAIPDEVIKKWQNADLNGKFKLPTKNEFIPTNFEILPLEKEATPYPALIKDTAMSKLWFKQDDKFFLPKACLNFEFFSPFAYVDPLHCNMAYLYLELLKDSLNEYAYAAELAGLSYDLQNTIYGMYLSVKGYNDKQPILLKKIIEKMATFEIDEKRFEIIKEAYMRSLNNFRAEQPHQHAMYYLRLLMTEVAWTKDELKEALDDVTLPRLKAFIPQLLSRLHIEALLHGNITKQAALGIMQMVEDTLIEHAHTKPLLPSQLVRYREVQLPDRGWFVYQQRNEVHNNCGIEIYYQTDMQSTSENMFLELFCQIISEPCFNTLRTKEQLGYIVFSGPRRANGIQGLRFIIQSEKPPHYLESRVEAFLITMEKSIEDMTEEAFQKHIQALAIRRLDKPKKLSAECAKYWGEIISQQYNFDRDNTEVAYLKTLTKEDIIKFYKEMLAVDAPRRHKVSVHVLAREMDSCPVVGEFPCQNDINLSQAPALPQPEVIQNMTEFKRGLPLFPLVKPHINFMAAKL
Experiment: biochemical
Details: judged as IC50 <100 uM?; individual replicates; read-out: Percent activity at 500 uM, Replicate 1-4
Experimental: The six selected peptide sequences (C7C-1, C7C-2, 12–1, 12–2, 12–3 and 12–4) were synthesized, together with a variety of modifications, yielding a total of 25 peptides (Table 1). […] IDE activity was quantified by monitoring the degradation of Mca-[…](Dnp) (FRET1, 5 μM), fluoresceinated and biotinylated amyloid ß-protein (FAßB; 500 nM) or recombinant human insulin (50 nM) in PBS supplemented with 0.05% BSA. […]
Bridge positions count the residues as written; N and C are the ends. Peptide text beside a SMILES is read from it.
One number for each entry, in %.

MOLECULE: CC[C@H](C)[C@@H]1NC(=O)[C@H](CO)NC(=O)[C@H](Cc2c[nH]c3ccccc23)NC(=O)[C@H](Cc2c[nH]c3ccccc23)NC(=O)[C@H](CO)NC(=O)[C@@H](NC(=O)[C@H](C)N)CSSC[C@@H](C(=O)NCC(=O)NCC(=O)NCC(=O)O)NC(=O)[C@H](CC(C)C)NC(=O)[C@H](Cc2c[nH]cn2)NC1=O [C7C-1B] (H-ACSWWSIHLCGGG-OH; disulfide 2-10 (inferred))
VALUE OBSERVED: 63.2

MOLECULE: CC(C)C[C@@H]1NC(=O)[C@H](Cc2c[nH]cn2)NC(=O)CNC(=O)[C@H](C)NC(=O)[C@H](CC(N)=O)NC(=O)[C@@H](NC(=O)[C@H](C)N)CSSC[C@@H](C(=O)NCC(N)=O)NC(=O)[C@H](CCC(N)=O)NC(=O)[C@H](CO)NC1=O [C7C-2A] (H-ACNAGHLSQCG-NH2; disulfide 2-10 (inferred))
VALUE OBSERVED: 92.5

For every item in the list below, what is its measured remaining activity at 500 µM?
1. CC[C@H](C)[C@@H]1NC(=O)[C@H](CO)NC(=O)[C@H](Cc2c[nH]c3ccccc23)NC(=O)[C@H](Cc2c[nH]c3ccccc23)NC(=O)[C@H](CO)NC(=O)[C@@H](NC(=O)[C@H](C)N)CSSC[C@@H](C(=O)NCC(=O)O)NC(=O)[C@H](CC(C)C)NC(=O)[C@H](Cc2c[nH]cn2)NC1=O [C7C-1] (H-ACSWWSIHLCG-OH; disulfide 2-10 (inferred))
2. CC(=O)N[C@@H](Cc1c[nH]c2ccccc12)C(=O)N[C@@H](CC(=O)O)C(=O)N[C@@H](Cc1ccccc1)C(=O)N[C@@H](CCCNC(=N)N)C(=O)N[C@@H](CCC(N)=O)C(=O)N[C@@H](Cc1c[nH]c2ccccc12)C(=O)N[C@@H](Cc1c[nH]c2ccccc12)C(=O)N[C@@H](CCC(N)=O)C(N)=O [P12-1D]

52
61.2
